B1: DVL3 (parent)
chain: FPELGYSYGGGSASSQHSEGSRSS

Variants of: B1
test_name: protein stability index of a GFP-peptide fusion (GPS, HEK-293T) (PSI 1-6); higher = more stable;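 note: lentivirally expressed fusions sorted by FACS into six bins by GFP to DsRed ratio, PSI derived from sequencing read proportions per bin multiplied by bin number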
protocol_conditions: c terminus: a fixed tail appended
Items are presented alongside their recorded protein stability index.
Lab note: record just the number, no unit beside it.

Worked examples follow.
>  <mutation_spec>
R22P

>  <protein stability index>
3.59

$$$$
>  <mutation_spec>
E19A

>  <protein stability index>
2.99

$$$$
>  <mutation_spec>
H17D

>  <protein stability index>
3.08

$$$$

The variant H17N showed protein stability index equal to 3.31

The variant E3I showed protein stability index equal to 3.59

The variant S7F showed protein stability index equal to 2.72

The variant G5E showed protein stability index equal to 4.81

The variant S18E showed protein stability index equal to 3.5

The variant E19M showed protein stability index equal to 3.12

The variant S24P showed protein stability index equal to 3.93

The variant Y8E showed protein stability index equal to 4.71

The variant S21Y showed protein stability index equal to 2.88

The variant S21M showed protein stability index equal to 2.78

The variant R22T showed protein stability index equal to 2.6

The variant Y8G showed protein stability index equal to 3.8

The variant S7I showed protein stability index equal to 2.04

The variant S21R showed protein stability index equal to 2.62

The variant R22Q showed protein stability index equal to 2.92

The variant S12Q showed protein stability index equal to 3.12

The variant G20F showed protein stability index equal to 2.63

The variant S12G showed protein stability index equal to 3.14

The variant S21F showed protein stability index equal to 2.56
